assayed_system: Carnitine O-palmitoyltransferase 1, liver isoform (Rattus norvegicus)
Sequence (P32198 whole entry): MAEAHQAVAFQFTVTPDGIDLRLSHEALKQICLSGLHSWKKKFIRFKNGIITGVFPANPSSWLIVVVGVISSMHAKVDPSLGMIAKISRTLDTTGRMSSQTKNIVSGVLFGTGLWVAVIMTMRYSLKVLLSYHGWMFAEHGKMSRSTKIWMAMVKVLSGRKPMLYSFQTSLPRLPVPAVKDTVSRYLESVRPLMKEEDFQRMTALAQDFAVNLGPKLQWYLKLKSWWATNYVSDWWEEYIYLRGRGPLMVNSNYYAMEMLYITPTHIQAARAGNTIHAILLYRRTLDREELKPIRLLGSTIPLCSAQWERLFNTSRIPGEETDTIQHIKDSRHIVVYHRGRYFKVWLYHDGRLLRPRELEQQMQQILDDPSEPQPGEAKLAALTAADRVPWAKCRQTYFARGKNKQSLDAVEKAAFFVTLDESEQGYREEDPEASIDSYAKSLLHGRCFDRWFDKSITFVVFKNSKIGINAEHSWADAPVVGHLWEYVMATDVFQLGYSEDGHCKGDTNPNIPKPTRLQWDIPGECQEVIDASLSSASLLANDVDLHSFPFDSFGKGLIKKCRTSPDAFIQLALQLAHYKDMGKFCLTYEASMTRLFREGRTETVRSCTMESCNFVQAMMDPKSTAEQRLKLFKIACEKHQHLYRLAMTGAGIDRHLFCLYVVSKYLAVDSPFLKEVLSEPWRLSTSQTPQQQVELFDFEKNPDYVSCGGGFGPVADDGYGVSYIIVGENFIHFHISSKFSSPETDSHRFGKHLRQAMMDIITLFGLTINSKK
experimental_protocol: SUPPLEMENTARY: Inhibition of Carnitine palmitoyltransferase 1, liver isoform
endpoint_label: IC50 (nM)
Give just the number in nM; leave the unit off.

Find the measured IC50 of `COc1ccc(Cl)cc1Sc1cn(C)c2ccc(C(=O)Nc3ccc(C(=O)O)cc3)cc12` and report it.
74

Find the measured IC50 of `COc1ccc(Cl)cc1Sc1c[nH]c2ccc(C(=O)Nc3ccc(C(=O)O)cc3)cc12` and report it.
148

Find the measured IC50 of O=C(COc1ccccc1)N1CCCCC1c1ncc(-c2cccc([N+](=O)[O-])c2)o1 (stereo not given) and report it.
237

Find the measured IC50 of COc1ccc(Cl)cc1S(=O)(=O)N1CC(C(=O)O)Cc2ccc(C(=O)Nc3ccccc3)cc21 (stereo not given) and report it.
14

Find the measured IC50 of `CS(=O)(=O)NCc1cccc(-c2nc([C@H]3CCCCN3C(=O)COc3ccccc3)no2)c1` and report it.
160
